Tested on: Aortic ring
Assay: Vasorelaxant activity in Sprague-Dawley rat aortic rings assessed as reduction in noradrenaline-induced contractions at 10 uM relative to control
Assay type: functional, Thoracic aorta
Design: scale not given: the % may be the effect or the level left
EXPERIMENTAL READOUT: Activity (%)

[[record]]
molecule = "COc1cc2c(cc1OCCCCCOc1ccc(C(N)=S)cc1)C(=O)C(C)OC2 (centres undefined)"
experimental_readout = "Activity"
unit_name = "%"
result = 6.6

[[record]]
molecule = "COc1ccc2c(c1OCCCCCCOc1ccc(C(N)=S)cc1)COC(C)C2=O (centres undefined)"
experimental_readout = "Activity"
unit_name = "%"
result = 20

[[record]]
molecule = "COc1ccc2c(c1OCCCCCOc1ccc(C(N)=S)cc1)COC(C)C2=O (centres undefined)"
experimental_readout = "Activity"
unit_name = "%"
result = 30.2

[[record]]
molecule = "COc1cc2c(cc1O)C(=O)C(C)OC2 (centres undefined)"
experimental_readout = "Activity"
unit_name = "%"
result = 0.4

[[record]]
molecule = "COc1ccc2c(c1O)COC(C)C2=O (centres undefined)"
experimental_readout = "Activity"
unit_name = "%"
result = 4.3

[[record]]
molecule = "COc1ccc2c(c1OCCCOc1ccc(C(N)=S)cc1)COC(C)C2=O (centres undefined)"
experimental_readout = "Activity"
unit_name = "%"
result = 3.7

[[record]]
molecule = "NC(=S)c1ccc(O)cc1"
experimental_readout = "Activity"
unit_name = "%"
result = 1.7

[[record]]
molecule = "COc1ccc2c(c1OCCCOc1ccc(-c3cc(=S)ss3)cc1)COC(C)C2=O (centres undefined)"
experimental_readout = "Activity"
unit_name = "%"
result = 5.4

[[record]]
molecule = "COc1cc2c(cc1OCCCCCCOc1ccc(C(N)=S)cc1)C(=O)C(C)OC2 (centres undefined)"
experimental_readout = "Activity"
unit_name = "%"
result = 49.6

[[record]]
molecule = "COc1ccc2c(c1OCCCCCCCCCCCCOc1ccc(C(N)=S)cc1)COC(C)C2=O (centres undefined)"
experimental_readout = "Activity"
unit_name = "%"
result = 12.6

[[record]]
molecule = "COc1ccc2c(c1OCCOc1ccc(C(N)=S)cc1)COC(C)C2=O (centres undefined)"
experimental_readout = "Activity"
unit_name = "%"
result = 19.8

[[record]]
molecule = "COc1ccc2c(c1OCCCCCCCCOc1ccc(C(N)=S)cc1)COC(C)C2=O (centres undefined)"
experimental_readout = "Activity"
unit_name = "%"
result = 25

[[record]]
molecule = "COc1cc2c(cc1OCCCCOc1ccc(C(N)=S)cc1)C(=O)C(C)OC2 (centres undefined)"
experimental_readout = "Activity"
unit_name = "%"
result = 5.1

[[record]]
molecule = "COc1cc2c(cc1OCCCOc1ccc(C(N)=S)cc1)C(=O)C(C)OC2 (centres undefined)"
experimental_readout = "Activity"
unit_name = "%"
result = 45.4

[[record]]
molecule = "COc1ccc2c(c1OCCOc1ccc(-c3cc(=S)ss3)cc1)COC(C)C2=O (centres undefined)"
experimental_readout = "Activity"
unit_name = "%"
result = 5.5

[[record]]
molecule = "COc1ccc2c(c1OCCCCOc1ccc(C(N)=S)cc1)COC(C)C2=O (centres undefined)"
experimental_readout = "Activity"
unit_name = "%"
result = 2.9

[[record]]
molecule = "COc1cc2c(cc1OCCCCCCCCOc1ccc(C(N)=S)cc1)C(=O)C(C)OC2 (centres undefined)"
experimental_readout = "Activity"
unit_name = "%"
result = 19.9

[[record]]
molecule = "[Na+].[SH-] [SODIUM HYDROSULFIDE]"
experimental_readout = "Activity"
unit_name = "%"
result = 18.7

[[record]]
molecule = "COc1cc2c(cc1OCCCCCCCCCCCCOc1ccc(C(N)=S)cc1)C(=O)C(C)OC2 (centres undefined)"
experimental_readout = "Activity"
unit_name = "%"
result = 2.2

